# System: DIV14
# methodNotes: qHTS profiling for inhibitors of Plasmodium falciparum proliferation (AID 504749); also: nearly all actives have a fitted effect of over 60% in size
# assaySetup: P. falciparum in erythrocytes, SYBR Green DNA, 72 h; series mostly up to 28.7 µM
Records with an inconclusive call do not appear. Calls of active or inactive are those of the source. Calls follow the shape of the dose curve; as a rule, active = well fitted inhibition curve with a large enough effect; inconclusive = small, poorly fitted or top-dose-only effect; inactive = flat fitted curve, though single readings scatter.
Your response should consist of one outcome taken from active, inactive

# example entries with known answers
{"compound": "C[C@H]1C[C@H]2[C@@H]3CCC4=CC(=O)C=C[C@]4(C)[C@@]3(F)[C@@H](O)C[C@]2(C)[C@@]1(O)C(=O)CO", "cat": "inactive"}
{"compound": "C[C@]12O[C@H](C[C@]1(O)CO)n1c3ccccc3c3c4c(c5c6ccccc6n2c5c31)CNC4=O", "cat": "active"}
{"compound": "Clc1cc(Cl)c(OCC#CI)cc1Cl", "cat": "active"}
{"compound": "CCCCCCCC(=O)O", "cat": "inactive"}
{"compound": "COC(C(=O)C(O)C(C)O)C1Cc2cc3cc(OC4CC(OC5CC(O)C(O)C(C)O5)C(O)C(C)O4)c(C)c(O)c3c(O)c2C(=O)C1OC1CC(OC2CC(OC3CC(C)(O)C(O)C(C)O3)C(O)C(C)O2)C(O)C(C)O1 (stereo unspecified)", "cat": "active"}

Could you now look at the following compound, please?
Q. Give the logged outcome of this assay for the following compound: "CC(=O)Oc1cc(C)c(OC(C)=O)c2ccccc12"
A. active
